Biological target: T1, TREM2 on human iPSC macrophages (human, UniProt Q9NZC2 19-230)
T1 sequence (looked up): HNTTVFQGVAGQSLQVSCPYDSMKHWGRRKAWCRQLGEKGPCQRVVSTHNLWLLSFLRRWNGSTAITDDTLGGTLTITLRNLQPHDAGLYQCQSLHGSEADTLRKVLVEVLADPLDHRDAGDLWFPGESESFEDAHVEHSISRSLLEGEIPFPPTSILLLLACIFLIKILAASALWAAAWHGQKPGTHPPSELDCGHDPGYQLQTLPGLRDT
Test: cell-based or functional assay
*1 amine or outer side, *2 acyl side, *3 side chain or, on linkers, in order; H or OH if unused. Bridges are numbered along the chain shown (N, C = ends). Where no end group is shown, it is not given here. TATA = O=C(CC[*:1])N1CN(C(=O)CC[*:2])CN(C(=O)CC[*:3])C1
Output fulfilled for pSYK (µM) not less than 4 µM; output not fulfilled otherwise.

Field: example entries. Status: answers known.
ACSNYCFWPFFQCA (linker 2-6-13 via TATA) [BCY19772] :: fulfilled
ACTNYCFWPFAVCA (linker 2-6-13 via TATA) [BCY19783] :: fulfilled

Please tell me: is the binder ACTNYCFWPFYLCA (linker 2-6-13 via TATA) [BCY19782] at or over 4 µM in terms of pSYK (µM)?
not fulfilled

Ok, now ACSYYCFWPFQYCA (linker 2-6-13 via TATA) [BCY19767]
fulfilled

And then Ac-CSEYCFWPFYAC (linker 1-5-12 via TATA) [BCY19293] , what is it?
fulfilled

Continue with ACSNYCFWPFWQCA (linker 2-6-13 via TATA) [BCY19770]
fulfilled
